Numbers sourced from ChEMBL document CHEMBL2074440.

Target of assay: Hepatic sodium/bile acid cotransporter (Homo sapiens)
Sequence (Q14973 whole entry): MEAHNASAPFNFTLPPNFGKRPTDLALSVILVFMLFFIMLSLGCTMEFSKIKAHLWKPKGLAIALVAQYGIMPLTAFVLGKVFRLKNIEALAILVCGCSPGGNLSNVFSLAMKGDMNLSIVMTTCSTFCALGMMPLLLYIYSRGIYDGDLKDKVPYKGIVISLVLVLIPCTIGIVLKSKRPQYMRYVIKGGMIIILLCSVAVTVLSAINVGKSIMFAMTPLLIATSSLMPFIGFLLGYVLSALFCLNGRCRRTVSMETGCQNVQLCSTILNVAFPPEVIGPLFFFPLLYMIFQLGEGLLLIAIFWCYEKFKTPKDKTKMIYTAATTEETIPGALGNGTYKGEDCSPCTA
Experimental protocol: TP_TRANSPORTER: inhibition of Taurocholate uptake (Taurochorate: 10 uM, Glycholithocholate: 100 uM) in Xenopus laevis oocytes
Assay type: functional, cell-based, Oocyte
Parameters: scale not given: the % may be the effect or the level left
Measurement conditions: probe taurocholate (10 uM), read-out: Activity
Experimental endpoint: activity at 100 µM (%)
A number alone suffices; assume %.

Notebook entry, Hepatic sodium/bile acid cotransporter (Homo sapiens) assay: activity at 100 µM of C[C@H](CCC(=O)NCC(=O)O)[C@H]1CC[C@H]2[C@@H]3CC[C@@H]4C[C@H](O)CC[C@]4(C)[C@H]3CC[C@]12C [LITHOGLYCOCHOLATE] = ?
24
